- Read-out: solute carrier (SLCO1B1), SLCO1B1 (gene 10599)
- Experiment summary: LTEA_HepaRG_SLCO1B1: Life Technologies and Expression Analysis (LTEA) Assay for solute carrier (SLCO1B1) using HepaRG (AID 2283530)
- Measurement parameters: mRNA level, 48 h; actives raise or lower the signal
Activity calls are given as the source filed them. The calls were made as follows: active = hit-call score of the fitted dose curve at least 0.9, where 1 is the maximum; inactive = score below 0.9.
Thanks in advance; please answer with one of these: active, inactive

>  <Molecule>
Cc1nn(-c2cc(NS(C)(=O)=O)c(Cl)cc2Cl)c(=O)n1C(F)F

>  <Label>
inactive

$$$$

// return assay outcome for S=C1NCCN1 active

// return assay outcome for CC(C1CC1)C(O)(Cn1cncn1)c1ccc(Cl)cc1 (stereo unspecified) inactive

// return assay outcome for CC(C)=CC1C(C(=O)OCN2C(=O)C3=C(CCCC3)C2=O)C1(C)C (stereo unspecified) inactive

// return assay outcome for CC(=NC#N)N(C)Cc1ccc(Cl)nc1 inactive
